target: Cytochrome P450 2C9 (Homo sapiens, UniProt P11712)
Sequence (P11712 whole entry): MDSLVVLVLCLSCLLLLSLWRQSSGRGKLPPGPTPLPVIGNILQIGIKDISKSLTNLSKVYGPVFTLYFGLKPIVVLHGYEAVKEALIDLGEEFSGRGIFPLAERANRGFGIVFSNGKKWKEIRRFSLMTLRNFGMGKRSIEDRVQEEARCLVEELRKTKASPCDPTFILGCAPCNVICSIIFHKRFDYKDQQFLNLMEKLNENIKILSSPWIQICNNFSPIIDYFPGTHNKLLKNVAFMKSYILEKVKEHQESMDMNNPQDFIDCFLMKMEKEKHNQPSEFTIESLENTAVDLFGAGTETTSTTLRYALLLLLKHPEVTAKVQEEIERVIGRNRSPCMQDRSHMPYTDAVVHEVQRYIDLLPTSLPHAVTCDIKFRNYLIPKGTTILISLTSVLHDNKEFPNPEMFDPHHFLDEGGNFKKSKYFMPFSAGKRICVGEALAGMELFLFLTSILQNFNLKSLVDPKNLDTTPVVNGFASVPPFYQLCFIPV
measured.metric: IC50 (µM)
Hi! Could you send only the number? It should be in µM, unit omitted.

Cc1nn(-c2cncc([C@](C)(O)C(F)(F)F)c2)c2ccccc12	11
Cc1nn(-c2cncc(C(C)(C)O)c2)c2cccc(F)c12	4.7

# input for lookup
API: value(readout=IC50, system=Cytochrome P450 2C9 (Homo sapiens, UniProt P11712)) for record CC(C)(O)c1cncc(-n2ncc3c(C(F)(F)F)cccc32)c1
9.1

====

target: Cytochrome P450 3A4 (Homo sapiens, UniProt P08684)
Sequence (P08684 whole entry): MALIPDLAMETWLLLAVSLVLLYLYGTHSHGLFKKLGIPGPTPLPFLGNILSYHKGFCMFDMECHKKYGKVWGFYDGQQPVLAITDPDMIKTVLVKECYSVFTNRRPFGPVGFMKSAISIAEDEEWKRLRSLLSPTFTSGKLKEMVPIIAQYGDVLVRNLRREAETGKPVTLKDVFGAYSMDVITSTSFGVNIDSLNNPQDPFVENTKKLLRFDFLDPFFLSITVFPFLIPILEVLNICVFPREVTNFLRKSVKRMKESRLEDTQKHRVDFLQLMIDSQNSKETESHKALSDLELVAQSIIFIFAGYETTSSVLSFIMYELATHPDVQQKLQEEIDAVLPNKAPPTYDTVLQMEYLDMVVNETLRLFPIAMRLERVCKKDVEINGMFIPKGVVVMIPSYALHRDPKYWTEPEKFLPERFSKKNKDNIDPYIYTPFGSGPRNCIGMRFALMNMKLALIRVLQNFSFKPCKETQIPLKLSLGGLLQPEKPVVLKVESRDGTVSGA
pIC50: −log10 of the molar value.
measured.metric: pIC50

Reference set (2 entries):
Cc1nn(-c2cncc(C(C)(C)O)c2)c2cccc(F)c12	< 4.30
C[C@](O)(c1cncc(-n2nc(C(F)(F)F)c3ccccc32)c1)C(F)(F)F	< 4.30

# input for lookup
Quick one: pIC50 for Cc1nn(-c2cncc([C@](C)(O)C(F)(F)F)c2)c2ccccc12 ?
< 4.30

// provenance: ChEMBL document CHEMBL4028827
